The entries below pair compounds with IC50 values for PIK3CA (human), as found in several publications.

Guide cases for IC50, answers given:
Q) # returns recorded IC50 (system: PIK3CA (human)) for C[C@H](Nc1ccnc2ccnn12)c1cc2cccc(Cl)c2c(OCCN2CCCC2)n1
A) > 10000 nM

Q) GET /values?readout=IC50&system=PIK3CA (human)&item= COc1ncc(-c2cc(OCC3CCCO3)c3nc(N)nc(C)c3c2)cc1NS(=O)(=O)c1ccc(F)cc1F (centres unmarked)
A) 1.3 nM

Q) Find IC50 (PIK3CA (human)) for the entry Cc1ccccc1-n1c(Cn2nc(-c3cccc(O)c3)c3c(N)ncnc32)nc2snc(C)c2c1=O
A) > 10000 nM

Q) Lab request: please report IC50 under test system PIK3CA (human) for Nc1nc2cc(-c3ccc4ncc(N5CC(N6CC7CCC(C6)O7)C5)nc4n3)ccc2o1
A) < 1000 nM

Q) Request: IC50, test system PIK3CA (human), entry COc1ncc(-c2ccc3ncc4nnc(CN(C)C)n4c3c2)cc1NS(=O)(=O)C(F)(F)F
A) < 100 nM

---
Q) Given the entry C[C@H](NC(=O)c1nccnc1N)c1cc2cccc(Cl)c2c(C(=O)N2CCOCC2)n1 , what IC50 was observed with PIK3CA (human)?
A) > 10000 nM

Q) Record c1cc(-c2nc3c(N4CCOCC4)nc(N4CCOCC4)nc3[nH]2)c2cn[nH]c2c1 : what is its IC50 with PIK3CA (human)?
A) 40 nM

###

pIC50: −log10 of the molar value.
Please find below pIC50 measurements for PIK3CA (human) (UniProt P42336), combined from several publications.

Q) Lookup: pIC50 / PIK3CA (human) (UniProt P42336) / Cn1cc(/C=C2\Oc3cccc(O)c3C2=O)c2c(-c3ccc(S(=O)(=O)N4CCCC4)cc3)ccnc21
A) 7.59

Q) Which measured pIC50 belongs to C[C@H](Nc1ncnc2[nH]cc(C#N)c12)c1cc2cccc(Cl)c2c(C(=O)N2CCOCC2)n1 , tested on PIK3CA (human) (UniProt P42336)?
A) > 5.00

Q) Request - read-out pIC50 | tested on PIK3CA (human) (UniProt P42336) | compound Cn1cc(/C=C2\Oc3cccc(O)c3C2=O)c2c(N3CCC(C(=O)N4CCN(CCO)CC4)CC3)ccnc21
A) 7.62

Q) Record lookup: for PIK3CA (human) (UniProt P42336), what pIC50 belongs to C[C@@H]1COCCN1c1nc(N2CC3CCC(C2)O3)nc2[nH]c(-c3cccc4[nH]ccc34)nc12 ?
A) 6.24

Q) Tell me reported pIC50 for Nc1ncc(-c2nc(N3CCOCC3)c3nc(N4CCOCC4)n(CC4CC4)c3n2)cn1 , tested with PIK3CA (human) (UniProt P42336).
A) 7.70 to 8.00

Q) Value wanted: pIC50 (PIK3CA (human) (UniProt P42336)) of entry CCc1ccccc1-n1c(Cn2nc(-c3cn[nH]c3)c3c(N)ncnc32)cc2cccc(C)c2c1=O
A) > 5.00

Q) Observed pIC50 on PIK3CA (human) (UniProt P42336) for Cc1ccccc1-n1c(Cn2nc(-c3nn[nH]n3)c3c(N)ncnc32)cc2cccc(C)c2c1=O , please.
A) > 5.00

Q) Param readout= pIC50; system= PIK3CA (human) (UniProt P42336); entry= Cc1cccc2cc([C@H](C)Nc3cc(N)nc(Cl)n3)n(-c3ccccc3)c(=O)c12 ; returns value.
A) < 5.00

Others:
Q) // lookup pIC50 | system=PIK3CA (human) (UniProt P42336) | key= CCOC(=O)[C@H]1CCCN(C(=O)N2CCOc3ccc(-c4ccc5nc(C)[nH]c5c4)cc3C2)C1
A) 5.52 to 6.00

Q) API: value(readout= pIC50, system= PIK3CA (human) (UniProt P42336), query= C[C@H](Nc1ccc2c(c1)N(C)CCn1cc(N3C(=O)OC[C@H]3C(F)F)nc1-2)C(N)=O )
A) 9.30
